Target: human PAH with the R408W mutation (Homo sapiens, UniProt P00439, R408W)
Construct: expressed in transfected cells
Sequence (P00439 1-452 R408W): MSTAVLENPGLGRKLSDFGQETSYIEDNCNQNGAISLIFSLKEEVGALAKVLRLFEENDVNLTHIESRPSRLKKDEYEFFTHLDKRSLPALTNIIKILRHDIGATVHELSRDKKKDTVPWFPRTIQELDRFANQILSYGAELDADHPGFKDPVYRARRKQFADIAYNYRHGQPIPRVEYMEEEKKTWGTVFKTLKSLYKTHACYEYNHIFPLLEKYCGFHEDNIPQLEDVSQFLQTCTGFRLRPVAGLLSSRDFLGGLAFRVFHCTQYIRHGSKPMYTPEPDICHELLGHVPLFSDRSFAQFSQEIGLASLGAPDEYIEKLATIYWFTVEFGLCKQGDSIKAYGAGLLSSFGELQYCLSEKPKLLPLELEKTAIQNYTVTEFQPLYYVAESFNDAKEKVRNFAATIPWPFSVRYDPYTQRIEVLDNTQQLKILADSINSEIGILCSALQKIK
Experiment: Cell Based Phenylalanine Flux Assay
Conditions: A375 cells expressing human R408W PAH; 24 hrs compound incubation; 13C-Tyrosine by LC-MS; average where tested multiple times; read-out: AC50
Assign AC50 to each entry below.

Consider the reported AC50 for these compounds:
Cc1ncoc1C(=O)N1CCc2[nH]cnc2[C@H]1c1cc2ccccc2nn1 ... < 500 nM
C[C@@H](O)c1nc(C(F)F)c(C(=O)N2CCc3[nH]cnc3C2c2ccc3ccccc3n2)o1 (stereo in doubt) [Example 120] ... < 500 nM
Cc1ccc(-c2nnc(C(=O)N3CCc4[nH]cnc4[C@H]3c3ncc4ccccc4n3)o2)nc1 ... < 500 nM
Cc1nnc(C(=O)N2CCc3[nH]cnc3[C@H]2c2cc3ccccc3cn2)s1 ... 500 to 1000 nM
O=C(c1nnc(-c2cc[nH]n2)o1)N1CCc2[nH]cnc2[C@@H]1c1ncc2ccccc2n1 ... > 5000 nM
Cc1nc(C(C)(C)F)oc1C(=O)N1CCc2[nH]cnc2C1c1ccc2ccccc2n1 (stereo in doubt) [Example 22] ... < 500 nM

# per-item lookup of AC50; items listed below
1. CN1CCN(c2ccc3c(C(=O)N4CCc5[nH]cnc5[C@H]4c4cc5ccccc5cn4)cnn3c2)CC1
2. O=C(c1nnc(-c2ccc(C(F)(F)F)cn2)o1)N1CCc2[nH]cnc2[C@@H]1c1ncc2ccccc2n1
3. O=C(c1nnc(-c2ccn(C(F)F)n2)o1)N1CCc2[nH]cnc2C1c1ccc2ccccc2n1 (stereo in doubt)
4. O=C(C1CC1)N1CCc2[nH]cnc2[C@H]1c1cc2ccccc2nn1

A.
["< 500 nM", "1000 to 5000 nM", "1000 to 5000 nM", "1000 to 5000 nM"]

----------
Molecular target: human PAH with the R408W mutation (Homo sapiens, UniProt P00439, R408W)
Construct: expressed in transfected cells
Test: Cell Based Phenylalanine Flux Assay
Conditions: A375 cells expressing human R408W PAH; 24 hrs compound incubation; 13C-Tyrosine by LC-MS; average where tested multiple times; read-out: AC50
Assign AC50 to each entry below.

O=C(c1nnc(-c2ncccn2)o1)N1CCc2[nH]cnc2[C@H]1c1cc2ccccc2cn1 ... < 0.5 µM
O=C(C1CN(CC(F)(F)F)C1)N1CCc2[nH]cnc2[C@H]1c1cc2ccccc2cn1 ... 1 to 5 µM
O=C([C@@H]1CC1(F)F)N1CCc2[nH]cnc2C1c1ccc2ccccc2n1 (stereo in doubt) ... > 5 µM
CC(F)(F)c1ncc(C(=O)N2CCc3[nH]cnc3C2c2ccc3ccccc3n2)s1 (stereo in doubt) [Example 40] ... 1 to 5 µM
O=C(c1nnc(-c2cnn(C3CCC3)c2)o1)N1CCc2[nH]cnc2[C@@H]1c1ncc2ccccc2n1 ... 1 to 5 µM

# per-item lookup of AC50; items listed below
1. Cn1cc(-c2nnc(C(=O)N3CCc4[nH]cnc4[C@@H]3c3cc4ccccc4cn3)o2)cn1
2. O=C(c1oc(C2(O)CC2)nc1C(F)F)N1CCc2[nH]cnc2C1c1ccc2ccccc2n1 (stereo in doubt) [Example 129]

A.
1. > 5 µM
2. 1 to 5 µM
